TGF-beta receptor type-1 (Homo sapiens, UniProt P36897) pIC50, compiled from various sources.
pIC50: −log10 of the molar value.
measured-property: pIC50

1. C[C@H](CO)NC(=O)c1cnccc1Nc1cc(-c2cc(Cl)ccc2F)c(=O)n2c1N(C)CC2; < 5.30
2. Cc1cccc(-n2cccc2-c2ccc3ncc(C(N)=O)n3c2)n1; 7.72
3. Nc1ncc(-c2ccc([C@]34C[C@H]3CN(C3COC3)C4)cc2)cc1C(=O)NC12CCC(O)(CC1)CC2; 5.17
4. CCc1[nH]c(=O)c(-c2cc(Cl)ccc2F)cc1Nc1ccnc(NC(C)=O)c1; ≥ 6.30
5. NC(=O)c1sc2nc(OC/C=C\CO)nc(-c3cccc(Cl)c3)c2c1N; > 7.00
6. Fc1ccc(Cl)cc1-c1cc(Oc2ccncc2)c2cccnc2n1; < 5.00
7. Cc1ccc(-c2nc(C(C)(C)C)nc3sc(C(N)=O)c(N)c23)o1; 7.11
8. N#Cc1ccc(-c2cn(C3CC(CN)C3)c3ncnc(N)c23)cc1N (stereo not shown); 5.96
9. CC(C)(C)OCCOc1nc(-c2cccc(C(F)(F)F)c2)c2c(N)c(C(N)=O)sc2n1; 6.00 to 6.30
10. COCCN1C(=O)Cc2cc(-c3cncc(-c4ccc(=O)n(C(C)C)c4)c3)cnc21; < 5.00
11. Nc1ncc(-c2ccc([C@@]34C[C@@H]3CN(C3COC3)C4)cc2)cc1C(=O)NC12CCC(O)(CC1)CC2; 5.12
12. Cn1nc(C(F)(F)F)cc1Oc1ccnc(Nc2ccnc(C(C)(C)O)c2)c1; 7.42
13. Nc1ncc(-c2ccc([C@]34C[C@H]3CN(CC3COC3)C4)cc2)cc1C(=O)N[C@H]1CC[C@H](O)CC1; 5.82
14. COCCOc1nc(-c2cccc(C(F)(F)F)c2)c2c(N)c(C(N)=O)sc2n1; 6.00 to 6.30
15. Fc1ccc(Cl)cc1-c1cc(Nc2ccnc(Nc3cc(-c4cc(Cl)ccc4F)nc4ncccc34)n2)c2cccnc2n1; 5.00 to 6.00
16. CC(C)(N)C(=O)Nc1cc(Nc2cc(-c3cc(Cl)ccc3F)nc3ncccc23)ncn1; 6.00 to 7.00
17. Cc1cccc2c(Nc3ccnc(Nc4cc(CC5CCNCC5)ccc4F)n3)cnnc12; 7.00 to 8.00
18. CN1C(=O)Cc2cc(-c3cncc(-c4ccc(=O)n(C)c4)c3)ccc21; < 5.00
19. NC(=O)c1sc2nc(OC3CCC(O)C3)nc(-c3cccc(Cl)c3)c2c1N (stereo not shown); 6.30 to 7.00
20. Cc1cccc(-c2cc(Nc3ccnc(NC(N)=O)c3)c3cccnc3n2)n1; > 7.00
21. COc1cc(-c2cnc3sc(NCc4cccnc4)nn23)cc(OC)c1OC; 6.17
22. NC(=O)c1sc2nc(OCCC(O)CO)nc(-c3cccc(Cl)c3)c2c1N (stereo not shown); > 7.00
23. CC(=O)Nc1cc(Nc2cc(-c3cc(Cl)c(C)cc3F)c(=O)[nH]c2C(C)C)ccn1; < 5.30
24. C[C@@H]1CCCN1Cc1ccc(-c2cnc(N)c(C(=O)N[C@H]3CC[C@](C)(O)CC3)c2)cc1Cl; 5.00
25. Cc1ccc(-c2nc(OCc3ccncc3)nc3sc(C(N)=O)c(N)c23)o1; 6.00 to 6.30
26. Fc1ccc(C(F)(F)F)cc1-c1cc(Nc2ncncn2)c2cccnc2n1; > 7.00
27. CC(C)(CO)COc1nc(-c2cccc(Cl)c2)c2c(N)c(C(N)=O)sc2n1; 6.30 to 7.00
28. Cc1cccc(-c2ccccc2-c2ccc3occ(C(N)=O)c3c2)n1; 6.66
29. NCC1CC(n2cc(-c3cccs3)c3c(N)ncnc32)C1 (stereo not shown); 5.57
30. CCC(CC)CN1C(=O)Cc2cc(-c3cncc(-c4ccc(=O)n(C(C)C)c4)c3)ccc21; 5.38
31. C=CCNc1nc(-c2cccc(C)n2)c2c(N)c(C(N)=O)sc2n1; 7.66
32. CC(C)(C)OC(=O)NC(C)(C)C(=O)Nc1cc(Nc2cc(-c3cc(Cl)ccc3F)nc3ncccc23)ncn1; < 5.00
33. CC(C)NC(=O)c1cnccc1Nc1cc(-c2cc(Cl)ccc2F)nc2ncccc12; > 7.00
34. Cc1cccc2c(Nc3ccnc(Nc4ccc(CN5CCOCC5)cc4)n3)cnnc12; > 8.00

###

pIC50: −log10 of the molar value.
// note: pIC50 values for TGF-beta receptor type-1 (Homo sapiens, UniProt P36897) were reported in different studies
measured-property: pIC50

1) CN(C)c1[nH]c(=O)c(-c2cc(Cl)ccc2F)cc1Nc1ccncc1C1=NCCN1; 5.30 to 5.70
2) O=C(O)c1cc(Nc2cc(-c3cc(Cl)ccc3F)nc3ncccc23)ccn1; 5.00 to 6.00
3) Nc1nccc2c(-c3cc(-c4cc(C(F)(F)F)ccc4F)nc4ncccc34)cccc12; > 6.00
4) Cc1cccc2c(Nc3ccnc(Nc4ccc(N5CCOCC5)c(Cl)c4)n3)cnnc12; > 8.00

###

pIC50: −log10 of the molar value.
Compiled literature pIC50, tested on TGF-beta receptor type-1 (Homo sapiens).
measured-property: pIC50

1) CC(C)(O)c1cc(Nc2cc(Oc3cccnc3C3CCOCC3)ccn2)ccn1; 7.25
2) Fc1ccc(Cl)cc1-c1cc(Nc2ccncc2)c2nccnc2n1; > 6.00
3) Cc1ncsc1CCOc1nc(-c2cccc(Cl)c2)c2c(N)c(C(N)=O)sc2n1; > 7.00
4) CC(C)c1[nH]c(=O)c(-c2ccc(F)c(Cl)c2)cc1Nc1ncnc2c1CC(=O)N2; 5.70 to 6.30
5) O=C(CCN1CCNCC1)Nc1cc(Nc2cc(-c3cc(Cl)ccc3F)nc3ncccc23)ncn1; < 5.00
6) Fc1ccc(Cl)cc1-c1cc(-c2cnc(OCCN3CCCC3)c3cnccc23)c2cccnc2n1; > 6.00
7) NC(=O)c1sc2nc(OC[C@@H](O)CO)nc(-c3cccc(Cl)c3)c2c1N; 6.30 to 7.00
8) Cc1cccc(-c2nc(CNCc3ccc4ccccc4c3)[nH]c2-c2ccc3ncnn3c2)n1; 6.00 to 7.00

###

pIC50: −log10 of the molar value.
The compounds below each have a reported pIC50 tested on TGF-beta receptor type-1 (Homo sapiens, UniProt P36897); the values come from various publications.
measured-property: pIC50

1. CC(C)n1cc(-c2cncc(-c3ccc4c(c3)CC(=O)N4CC3CCC3)c2)ccc1=O; 5.47
2. Cc1cccc(-c2cc3nccn3cc2-c2ccc3ncc(C(N)=O)n3c2)n1; 7.25
3. CC(C)N1C[C@H]2C[C@@]2(c2ccc(-c3cnc(N)c(C(=O)N[C@H]4CC[C@](C)(O)CC4)c3)cc2)C1; 5.17
4. c1cc(-c2cnc3cc(-c4ccc(C5CNCCN5)cc4)ccn23)c2cccnc2c1 (stereo not shown); 5.94
5. C[C@@H]1C[C@H](n2nc(C(F)(F)F)cc2Oc2ccnc(Nc3ccnc(C(C)(C)O)c3)c2)C[C@H](C)O1; 5.98
6. Nc1ncc(-c2ccc([C@@]34C[C@@H]3CN(C3CCC(F)(F)CC3)C4)cc2)cc1C(=O)NC12CCC(O)(CC1)CC2; 5.18
7. C[C@]1(O)CC[C@H](NC(=O)c2cc(-c3ccc([C@@]45C[C@@H]4CN(C4CCC(F)(F)CC4)C5)cc3)cnc2N)CC1; 5.00

###

Here's a roundup of IC50 values tested on TGF-beta receptor type-1 (Homo sapiens), taken from various published works.
measured-property: IC50

1. Fc1ccc(Cl)cc1-c1cc(-c2c[nH]c3cnccc23)c2cccnc2n1; < 1 µM
2. COCc1cnn(CCOc2nc(-c3cccc(Cl)c3)c3c(N)c(C(N)=O)sc3n2)c1; 0.1 to 0.5 µM
3. Nc1ncc(-c2ccc([C@@]34C[C@@H]3CN(C3CCS(=O)(=O)CC3)C4)cc2)cc1C(=O)N[C@H]1CC[C@H](O)CC1; 3.2 µM
4. c1ccc(-c2n[nH]cc2-c2ccc3c(c2)OCO3)nc1; ~0.051 µM
5. Cc1cccc(-c2cc(Nc3cc(N)ncn3)c3cccnc3n2)n1; < 0.1 µM
6. FC(F)(F)c1cccc(-c2cc(Nc3ccncc3)c3cccnc3n2)c1; < 0.1 µM
7. C[C@@H](CO)NC(=O)c1cnccc1Nc1cc(-c2cc(Cl)ccc2F)c(=O)n2c1N(C)CC2; 2 to 5 µM
8. Nc1nccc2c(-c3cc(-c4ccccc4F)nc4ncccc34)ccc(OCCO)c12; < 1 µM

###

The entries below pair compounds with IC50 values for TGF-beta receptor type-1 (Homo sapiens, UniProt P36897), as found in several publications.
measured-property: IC50

1. CC(C)(O)c1cc(Nc2cc(Oc3cc(C(F)(F)F)nn3-c3c(F)cccc3F)ccn2)ccn1; 13 nM
2. Cc1cccc(-c2cc(-n3ccc4cncnc43)c3cccnc3n2)n1; 100 to 1000 nM
3. [O-][n+]1ccc2c(-c3cc(-c4ccccc4F)nc4ncccc34)nccc2c1; > 10000 nM
4. Cc1cccc(-c2nc(OCc3ccc(OCCN4CCOCC4)cc3)nc3sc(C(N)=O)c(N)c23)n1; 100 to 500 nM
5. Cc1cc(-c2cc(Nc3ncnc4c3CC(=O)N4)c(C(C)C)[nH]c2=O)ccc1F; 2000 to 5000 nM
6. CSc1nc(-c2ccc(C)o2)c2c(N)c(C(N)=O)sc2n1; 46 nM
7. CN(C)c1[nH]c(=O)c(-c2cc(Cl)ccc2F)cc1Nc1ccnc2ccccc12; > 5000 nM
8. Fc1ccccc1-c1cc(Nc2ccncn2)c2cccnc2n1; < 100 nM
9. NCC1CC(n2cc(-c3cccc(F)c3)c3c(N)ncnc32)C1 (stereo not drawn); 1700 nM
